Test: NCI Yeast Anticancer Drug Screen. Data for the mlh1 rad18 strain (AID 175)
Conditions: S. cerevisiae mlh1 rad18 strain growth inhibition; at 50.0 µM (retest, dose inferred, filed as 5.0); active compounds read high
The panel holds about 79,000 compounds, 15% with a hit somewhere; the sample as a whole holds those more often.
parameter: growth inhibition (%)

1. CCC(C)(C)c1ccc(OCCO)c([N+](=O)[O-])c1    90
2. OC(C/C=N/Nc1ccccc1)(C(F)(F)Cl)C(F)(F)Cl    98
3. CCN(CC)CCC(=O)OC1C(C)=CC(C)C(=O)CC(C(C)CC2CCC(O)C(OC)C2)OC(=O)C2CCCCN2C(=O)C(=O)[C@@]2(O)OC(CCC2C)CC(OC)\C(C)=C/C=C/C=C/C(C)CC(C)C(=O)C1OC (some centres undefined)    97
4. Clc1ccc(CN2COc3c(ccc4cccnc34)C2)c(Cl)c1    98
